Reference source for all entries: ChEMBL document CHEMBL4257490

test: Metabolic stability in rat serum assessed as parent compound remaining using 99mTc(CO)3-labeled compound after 24 hrs by TLC method; type: ADME, cell-free; settings: read-out: Stability
Residues, ends and D or L forms follow the SMILES beside them. *: point of attachment. X1 = O=c1nc(N*)ccn1[C@@H]1O[C@H](CO)[C@@H](O)C1(F)F
measure: remaining at 24 h

- molecule: "N=C(N)NCCC[C@H](NC(=O)[C@@H](N)Cc1cnc[nH]1)C(=O)NCC(=O)N[C@@H](CC(=O)Nc1ccn([C@@H]2O[C@H](CO)[C@@H](O)C2(F)F)c(=O)n1)C(N)=O (H-HRGD(X1)-NH2)"
  measure: "remaining at 24 h"
  reported.value: "≥ 92%"

Query: Entry NCCCC[C@H](NC(=O)CNC(=O)[C@H](Cc1cnc[nH]1)NC(=O)[C@H](CCCCN)NC(=O)[C@H](Cc1ccc(O)cc1)NC(=O)[C@@H](N)Cc1cnc[nH]1)C(=O)N[C@@H](CC(=O)Nc1ccn([C@@H]2O[C@H](CO)[C@@H](O)C2(F)F)c(=O)n1)C(N)=O (H-HYKHGKD(X1)-NH2) needs its remaining at 24 h filled in; supply it.
Response: ≥ 92%
